Kindly supply the reported GI50 values for the records listed here.
# Test system: U-251
# protocol description: NCI tumour cell line growth inhibition, 48 h
Activity calls are given as the source filed them. No stated cut-off is given here; in the data, active = GI50 up to about 1.1 µM and inactive = higher.

Solved entries (count: 5):
compound	GI50
CCOP(=O)(OCC)C(Nc1ccc(Cl)cc1)c1ccc(F)cc1 (stereo not drawn)	18.2 µM (inactive)
Cc1ccc(/C=C2\CN(C)CC3=C2OC(N)=C(C#N)C3c2ccc(C)cc2)cc1 (stereo not drawn)	34.7 µM (inactive)
CC(C)=CC(Cc1ccccc1)S(=O)(=O)c1nc2ccccc2s1 (stereo not drawn)	15.9 µM (inactive)
c1ccc(C(c2cccc3c2ccc2ccccc23)C(c2ccccc2)c2cccc3c2ccc2ccccc23)cc1 (stereo not drawn)	> 100 µM (inactive)
CCCCCCCCCCSC(=O)NC	25.8 µM (inactive)

Working through the 2 compounds below one at a time, give GI50 for each.
1. CCOP1(=O)CC(C)=C(Cl)C(OC)C1 (stereo not drawn)
2. COc1ccc(Cn2c3c(cc(OS(=O)(=O)C(F)(F)F)c2=O)Cc2ccccc2-3)cc1

1: > 100 µM (inactive); 2: 19.2 µM (inactive)

Parameter requested: GI50. Apply to each item below.
1. O=S(=O)(O)c1ccc(Nc2ccnc3cc(Cl)ccc23)cc1
2. Cc1ccsc1/C=N/Nc1ccc2ccccc2n1

1. > 100 µM (inactive)
2. 49 µM (inactive)

Below are 7 compounds. Give each one its GI50.
1. N#CC(NNC(=O)c1ccccc1O)c1ccc(O)cc1 (stereo not drawn)
2. COCCN1C(=O)C2c3[nH]c4ccccc4c3C3CCC(C(C)(C)C)CC3C2C1=O (stereo not drawn)
3. Cc1ccc2c(O)cc(-c3cccs3)nc2n1
4. CCCCCCCCCCCCCCCCCC(=O)O[C@H](COC(=O)CCCCCCCCCCC)COC(=O)CCCCCCCCCCCCCCC
5. C[C@@H]1OC(=O)C[C@H]2CC(=O)N(CCC3CN(S(=O)(=O)C(F)(F)F)c4ccccc43)C[C@@H]21 (stereo partly drawn)
6. COc1ccc(NC(=O)CC(=O)N2N=C(N(c3ccccc3)c3ccccc3)CC2c2ccccc2)cc1 (stereo not drawn)
7. COc1ccc(NC(=S)NN=C(C)c2cccc(C(C)=NNC(=S)Nc3ccc(OC)cc3)n2)cc1

1. 3.8 µM (inactive)
2. 15.5 µM (inactive)
3. 12.1 µM (inactive)
4. > 100 µM (inactive)
5. > 100 µM (inactive)
6. > 100 µM (inactive)
7. 24.5 µM (inactive)

Quick batch: GI50 for everything below.
1. CN(C)CCNC(=O)c1cccc2nc(-c3ccccc3)oc12
2. CCC(C)n1c(C)nc2c1C(=O)c1ccccc1C2=O (stereo not drawn)
3. CCC1(c2c(F)c(F)c(N)c(F)c2F)CCC(=O)NC1=O (stereo not drawn)
4. CCOC(=O)C1=C(Nc2ccc(Cl)c(Cl)c2)OC/C1=N\NC(=O)Cc1ccccc1
5. COc1cc(O)c2c(=O)c(O)c(-c3ccc(O)c(OC)c3)oc2c1 [RHAMNAZIN]

1. 46.9 µM (inactive)
2. 44.8 µM (inactive)
3. > 100 µM (inactive)
4. > 100 µM (inactive)
5. 2.19 µM (inactive)

###

# System: MDA-MB-231
# protocol description: NCI tumour cell line growth inhibition, 48 h
Activity calls are given as the source filed them. No stated cut-off is given here; in the data, active = GI50 up to about 1.1 µM and inactive = higher.
Reply using exactly one outcome from active, inactive

As a guide, the following entries are already answered.
>>> df
                                   compound  category_label
0     Cn1c(-c2ccccc2)cc(-c2cccs2)c1-c1ccsc1        inactive
1             S=C(c1c[nH]c2ccccc12)N1CCOCC1        inactive
2  COC(=O)C(C)(C)NC(=O)C(Cc1ccccc1)Nc1ncnc2c1ncn2-c1ccc(OC)cc1 (stereo unspecified)        inactive
3            CN(CO)c1nc(N(C)CO)nc(N(C)CO)n1        inactive
4  O=C1c2ccccc2-c2nc(/C=C/c3ccccc3)cc3c2c1nc1ccccc13        inactive

We now examine a further compound.
State the result this test recorded for COc1c2c(cc3c1OCO3)[C@]13C=C[C@H](OC)C[C@H]1N(C2)CC3O (stereo partly specified) .
inactive
